Field: DR147 Cross-binding. Provide a value for each of the compounds that follow.
test system: HLA-DR molecules (DR1, DR4w4, DR7, DRB5*0101, DRB1*1501, DRB1*1101, DRB1*0802, DRB1*1302); test: DR supertype cross-reactive binding; set-up: species or system human; conditions: number of DR1, DR4w4, DR7 bound, Table XXVIII

Sample CC[C@H](C)[C@H](NC(=O)CNC(=O)[C@H](Cc1ccccc1)NC(=O)[C@@H](NC(=O)[C@@H](NC(=O)CNC(=O)[C@H](CC(C)C)NC(=O)[C@@H](N)C(C)C)C(C)C)C(C)C)C(=O)N[C@@H](CC(C)C)C(=O)N[C@H](C(=O)N[C@@H](CCCCN)C(=O)N[C@@H](CCCNC(=N)N)C(=O)N[C@@H](CCCNC(=N)N)C(=O)N[C@@H](CCC(N)=O)C(=O)N[C@@H](CCC(N)=O)C(=O)O)[C@@H](C)CC — what was its DR147 Cross-binding?
2

Sample CC[C@H](C)[C@H](NC(=O)[C@H](CCC(=O)O)NC(=O)[C@@H](N)CCCCN)C(=O)N[C@@H](CC(C)C)C(=O)N[C@@H](CC(=O)O)C(=O)N[C@@H](CCC(=O)O)C(=O)N[C@@H](C)C(=O)N[C@@H](Cc1ccc(O)cc1)C(=O)N[C@H](C(=O)N[C@@H](CCSC)C(=O)N[C@@H](C)C(=O)NCC(=O)N[C@H](C(=O)NCC(=O)N[C@@H](CO)C(=O)O)C(C)C)C(C)C — what was its DR147 Cross-binding?
0

Sample CC[C@H](C)[C@H](NC(=O)[C@@H](NC(=O)[C@H](CS)NC(=O)[C@@H](NC(=O)[C@@H]1CCCN1C(=O)[C@@H]1CCCN1C(=O)[C@H](CCC(N)=O)NC(=O)[C@@H]1CCCN1C(=O)[C@H](CC(C)C)NC(=O)[C@H](CCCNC(=N)N)NC(=O)[C@H](CCC(=O)O)NC(=O)CN)[C@@H](C)CC)[C@@H](C)O)C(=O)N[C@@H](CC(=O)O)C(=O)N[C@H](C(=O)N[C@@H](Cc1ccc(O)cc1)C(=O)O)C(C)C — what was its DR147 Cross-binding?
0
